// IC50 lookup, one value per entry
- target: Induced myeloid leukemia cell differentiation protein Mcl-1 (Homo sapiens)
- Sequence (Q07820 whole entry): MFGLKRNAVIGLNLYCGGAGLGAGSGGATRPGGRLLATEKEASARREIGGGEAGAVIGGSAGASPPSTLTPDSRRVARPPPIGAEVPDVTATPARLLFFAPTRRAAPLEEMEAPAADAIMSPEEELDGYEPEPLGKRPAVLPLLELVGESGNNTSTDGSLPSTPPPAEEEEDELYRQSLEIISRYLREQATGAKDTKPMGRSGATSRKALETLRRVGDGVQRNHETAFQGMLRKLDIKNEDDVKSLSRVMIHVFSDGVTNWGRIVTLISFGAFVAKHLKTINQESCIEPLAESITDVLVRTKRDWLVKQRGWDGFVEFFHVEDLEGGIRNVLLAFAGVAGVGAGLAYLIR
- Assay type: functional
The source made the active and inactive calls.

chem_smiles: Cc1[nH]n(-c2ccccc2)c(=O)c1/C=C1/C(=O)NN(c2ccc(F)c(Cl)c2)C1=O
IC50: 5.78 µM (active)
--
chem_smiles: Oc1ccc(/C=N/Nc2ccnc3cc(Cl)ccc23)c(O)c1
IC50: 6.73 µM (active)
--
chem_smiles: CCCOc1ccc(Cc2nn3c(=O)/c(=C/c4ccco4)sc3nc2=O)cc1
IC50: 8.96 µM (not active)
--
chem_smiles: COc1ccccc1/C=C1/SC(=O)N(CCC(=O)Nc2ccc(S(=O)(=O)Nc3nccs3)cc2)C1=O
IC50: 2.69 µM (active)

* * *

- test_description: Trypanosoma cruzi growth suppression in host cells – NIH3T3 host cells, beta-gal luminescence, confirmation (AID 2044);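 note: intracellular parasites grown in NIH/3T3 mouse fibroblasts as host cells; luminescent beta-galactosidase reporter signal from transgenic T. cruzi replicating inside host cells; inhibitors lower the luminescence signal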
- Format: functional, cell-based
The source made the active and inactive calls.
Measured EC50 accompanies every entry in the list below.

compound: Cc1ccc(OCC(O)CNCc2ccc(F)cc2)cc1 (configuration not stated)
EC50: 0.321 µM (active)

compound: CCOC(=O)C1(CCOc2ccccc2)CCN(Cc2cccn2-c2cccnc2)CC1
EC50: 2.94 µM (active)

compound: CCN(CC)CCN(C(=O)C1CCCCC1)c1nc2cc3c(cc2s1)OCO3
EC50: < 0.1 µM (active)

compound: O=C(NCCCN1CCOCC1)c1ccc([N+](=O)[O-])cc1[N+](=O)[O-]
EC50: 0.582 µM (active)

compound: CCCCOc1ccc(CN2CCCCC2)cc1
EC50: 1.2 µM (active)

compound: CN1CCN(/N=C/c2cccc(Cl)c2Cl)CC1
EC50: 0.321 µM (active)

compound: O=C(/C(=C/c1ccc(Cl)cc1)c1nc2ccccc2[nH]1)c1cccs1
EC50: 1.03 µM (active)

compound: Cc1ccc(C(=O)c2c(NC(=O)c3ccncc3)sc3c2CCCC3)cc1
EC50: < 0.1 µM (active)

compound: Cc1cc2cc(CNC(=O)c3cc4ccccc4o3)ccc2n1C
EC50: 0.547 µM (active)

compound: O=C(NC(=S)Nc1ccc(Oc2ccccc2)cc1)c1ccc(Cl)cc1
EC50: 2.34 µM (active)

compound: COc1ccc(C(C(=O)NC2CCCC2)N(C(=O)c2snc(-c3ccc(F)cc3)c2N)c2ccc(OC)cc2)cc1 (configuration not stated)
EC50: 1.59 µM (active)

compound: COc1ccc(CNCCC(c2ccc(OC(C)C)cc2)C(C)C)cc1OC (configuration not stated)
EC50: 0.416 µM (active)

* * *

// values below are reported IC50
- target: Carboxy-terminal domain RNA polymerase II polypeptide A small phosphatase 1 (Homo sapiens)
- Sequence (Q9GZU7 whole entry, the tested form may be a part): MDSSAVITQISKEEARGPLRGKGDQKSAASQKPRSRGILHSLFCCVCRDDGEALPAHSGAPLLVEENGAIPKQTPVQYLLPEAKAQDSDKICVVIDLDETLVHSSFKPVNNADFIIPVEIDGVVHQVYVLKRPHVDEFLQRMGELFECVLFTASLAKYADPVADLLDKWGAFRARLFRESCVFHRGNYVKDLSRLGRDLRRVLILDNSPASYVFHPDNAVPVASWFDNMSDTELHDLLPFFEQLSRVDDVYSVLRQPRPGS
- test_description: CTDSP1 inhibitors, concentration-response, biochemical, absorbance readout, ultra-high-throughput screen actives (AID 540297)
- Assay type: functional
Activity calls are given as the source filed them.

compound: CCOc1cc(/C=N/NC2=NC(=O)C(CC(=O)O)S2)ccc1OCc1ccccc1Cl (configuration not stated)
IC50: 4.28 µM (active)

compound: CCOC(=O)N(O)c1ccc(C=Cc2ccccc2)cc1
IC50: 6.05 µM (active)

compound: Cc1cc(C(=O)N/N=C/C=C/c2ccc(Br)cc2)[nH]n1
IC50: 7.02 µM (active)

compound: CC(C)N1C(=O)CC2(CC[N+](C)(CCOC(=O)C(O)(c3ccccc3)c3ccccc3)CC2)C1=O (configuration not stated)
IC50: 6.22 µM (active)

compound: CC1=NN(c2nc(-c3ccc(C)cc3)cs2)C(=O)C1N=Nc1ccccc1O (configuration not stated)
IC50: 3.69 µM (active)

compound: Cc1ccc2nc(Cl)c(C3CC(c4cccs4)=NN3C(=O)CCCC(=O)O)cc2c1 (configuration not stated)
IC50: 11.1 µM (active)

compound: O=C(CCN1C(=O)/C(=C/c2ccc3c(c2)OCO3)SC1=S)Nc1ccc(C(=O)O)cc1
IC50: 2.3 µM (active)

* * *

- target: Ras and Rab interactor 1/Tyrosine-protein kinase ABL1 (Homo sapiens, UniProt P00519+Q13671);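 note: biochemical TR-FRET dose-response test measuring inhibition of binding between Rin1 and Abl proteins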
- Sequence (P00519 whole entry): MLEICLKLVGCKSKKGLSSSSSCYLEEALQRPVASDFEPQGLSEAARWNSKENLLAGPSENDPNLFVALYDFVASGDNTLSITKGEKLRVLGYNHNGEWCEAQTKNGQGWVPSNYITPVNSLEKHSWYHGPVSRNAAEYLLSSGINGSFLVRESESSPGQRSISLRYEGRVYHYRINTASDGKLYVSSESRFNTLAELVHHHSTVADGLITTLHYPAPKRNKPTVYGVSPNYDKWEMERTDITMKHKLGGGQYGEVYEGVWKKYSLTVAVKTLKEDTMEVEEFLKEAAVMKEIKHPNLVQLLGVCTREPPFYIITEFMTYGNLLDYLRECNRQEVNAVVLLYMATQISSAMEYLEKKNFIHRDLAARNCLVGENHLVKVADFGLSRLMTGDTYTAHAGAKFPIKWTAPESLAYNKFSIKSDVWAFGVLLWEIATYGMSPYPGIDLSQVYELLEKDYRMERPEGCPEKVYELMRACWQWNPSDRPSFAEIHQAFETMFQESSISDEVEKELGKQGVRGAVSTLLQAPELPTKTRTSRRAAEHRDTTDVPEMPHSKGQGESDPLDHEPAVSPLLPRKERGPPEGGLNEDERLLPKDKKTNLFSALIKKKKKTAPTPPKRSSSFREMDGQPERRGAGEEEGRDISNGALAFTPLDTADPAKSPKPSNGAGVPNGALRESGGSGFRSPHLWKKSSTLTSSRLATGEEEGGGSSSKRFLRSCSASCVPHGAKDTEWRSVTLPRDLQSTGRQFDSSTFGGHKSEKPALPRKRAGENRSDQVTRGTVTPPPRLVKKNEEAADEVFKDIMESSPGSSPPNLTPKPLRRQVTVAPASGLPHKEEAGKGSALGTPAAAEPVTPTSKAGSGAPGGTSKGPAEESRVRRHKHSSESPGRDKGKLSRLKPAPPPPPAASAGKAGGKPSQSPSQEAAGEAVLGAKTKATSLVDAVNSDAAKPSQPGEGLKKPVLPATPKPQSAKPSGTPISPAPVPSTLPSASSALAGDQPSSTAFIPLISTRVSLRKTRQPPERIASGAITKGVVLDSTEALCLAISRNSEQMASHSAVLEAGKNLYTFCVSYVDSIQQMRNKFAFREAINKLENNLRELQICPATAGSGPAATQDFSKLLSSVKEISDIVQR
- Sequence (Q13671 whole entry): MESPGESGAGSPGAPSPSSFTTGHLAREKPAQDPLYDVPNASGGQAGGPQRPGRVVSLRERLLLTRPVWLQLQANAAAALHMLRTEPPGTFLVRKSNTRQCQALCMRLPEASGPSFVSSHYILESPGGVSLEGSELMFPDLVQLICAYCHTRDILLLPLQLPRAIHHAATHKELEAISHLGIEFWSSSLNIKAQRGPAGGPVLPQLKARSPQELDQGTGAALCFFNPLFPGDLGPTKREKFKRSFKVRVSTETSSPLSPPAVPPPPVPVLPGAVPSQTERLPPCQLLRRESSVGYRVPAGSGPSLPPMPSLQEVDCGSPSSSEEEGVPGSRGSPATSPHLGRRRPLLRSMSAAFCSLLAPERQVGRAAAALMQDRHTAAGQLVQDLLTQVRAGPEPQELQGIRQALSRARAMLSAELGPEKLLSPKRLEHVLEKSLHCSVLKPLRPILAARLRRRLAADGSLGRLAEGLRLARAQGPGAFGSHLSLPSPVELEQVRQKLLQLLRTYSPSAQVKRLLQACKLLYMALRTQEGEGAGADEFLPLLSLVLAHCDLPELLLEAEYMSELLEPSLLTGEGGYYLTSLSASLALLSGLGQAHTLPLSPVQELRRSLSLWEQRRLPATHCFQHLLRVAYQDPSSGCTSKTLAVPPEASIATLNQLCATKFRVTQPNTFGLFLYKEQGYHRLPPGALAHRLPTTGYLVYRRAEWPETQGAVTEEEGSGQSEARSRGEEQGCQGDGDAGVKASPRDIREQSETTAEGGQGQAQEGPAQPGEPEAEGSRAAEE
- Assay type: functional
Calls of active or inactive are those of the source.
// reported IC50 for each item listed
property_measured: IC50

compound: O=C(O)c1ccc(CSc2nnc(-c3cccnc3)n2-c2ccc(Br)cc2)cc1
property_measured: IC50
measured_value: 11.8 µM (inactive)
--
compound: CSCCC(c1nnnn1C1CCCC1)N1CCC(n2c(O)nc3ccccc32)CC1 (centres undefined)
property_measured: IC50
measured_value: 26.1 µM (inactive)
--
compound: CC[C@]12c3[nH]c4ccc(Cl)cc4c3CCN1C(=O)[C@@H](CC(=O)NCCCN(C)C)C[C@@H]2C(=O)N1CCN(C(=O)c2ccco2)CC1
property_measured: IC50
measured_value: 46.8 µM (inactive)
--
compound: Cc1nnc(SCc2nc3ccccc3[nH]2)s1
property_measured: IC50
measured_value: 15.2 µM (inactive)

* * *

- target: Voltage-gated N-type calcium channel alpha-1B subunit/Amyloid beta A4 precursor protein-binding family A member 1 (Homo sapiens, UniProt Q00975+Q02410)
- Assay type: protein assay
Calls of active or inactive are those of the source.
Classes used: active, inactive

compound: CC(C)c1ccc(/C=C2\SC(=O)N(CC(=O)NC3CCS(=O)(=O)C3)C2=O)cc1 (centres undefined)
assigned_category: inactive
//
compound: CCCCn1c(=O)[nH]c2nc3cc(N)ccc3nc2c1=O
assigned_category: inactive
//
compound: O=C(O)c1cc(-c2ccco2)nn1-c1ccc(Cl)cc1
assigned_category: active
//
compound: Cc1cc(C)nc(NC(=S)Nc2ccc(Br)cc2Cl)c1
assigned_category: inactive

* * *

- target: Corticotropin-releasing factor receptor 2/Corticotropin-releasing factor-binding protein (Homo sapiens, UniProt P24387+Q13324)
- Sequence (Q13324 whole entry): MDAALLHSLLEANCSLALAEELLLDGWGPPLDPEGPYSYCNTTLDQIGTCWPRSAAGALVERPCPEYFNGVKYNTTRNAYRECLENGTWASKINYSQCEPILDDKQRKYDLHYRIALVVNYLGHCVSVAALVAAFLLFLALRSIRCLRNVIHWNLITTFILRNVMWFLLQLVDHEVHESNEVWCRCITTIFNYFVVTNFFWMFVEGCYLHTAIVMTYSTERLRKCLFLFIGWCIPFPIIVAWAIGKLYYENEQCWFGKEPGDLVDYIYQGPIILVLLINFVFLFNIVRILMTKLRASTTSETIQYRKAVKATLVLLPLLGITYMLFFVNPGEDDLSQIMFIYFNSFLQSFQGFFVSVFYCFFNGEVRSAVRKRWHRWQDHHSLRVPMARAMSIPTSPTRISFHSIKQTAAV
- Sequence (P24387 whole entry): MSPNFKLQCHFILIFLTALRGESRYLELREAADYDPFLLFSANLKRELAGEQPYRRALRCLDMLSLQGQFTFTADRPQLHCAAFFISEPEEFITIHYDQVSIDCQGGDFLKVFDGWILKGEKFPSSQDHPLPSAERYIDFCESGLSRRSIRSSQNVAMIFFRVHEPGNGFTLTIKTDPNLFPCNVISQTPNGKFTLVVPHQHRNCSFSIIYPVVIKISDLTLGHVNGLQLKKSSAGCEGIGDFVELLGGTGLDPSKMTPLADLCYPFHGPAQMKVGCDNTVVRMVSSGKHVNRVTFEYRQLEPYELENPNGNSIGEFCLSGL
- test_description: Dose Response confirmation of uHTS hits for small molecule antagonists of the CRF-binding protein and CRF-R2 receptor complex.
- Format: functional
- applied_conditions: read-out: IC50_Mean
The source made the active and inactive calls.
Possible outcomes: 1 (active), 0 (inactive)

compound: Cc1ccc(CN2CCN(C3CCOCC3)CC2CCO)cc1 (centres undefined)
assigned_category: 0
--
compound: Cc1ccc([C@H]2C(C(=O)O)=CC[C@@H](c3ccc(Cl)cc3)N2S(=O)(=O)c2ccc(C)cc2)cc1
assigned_category: 1
--
compound: Cc1cccc(N2CCN(C(=O)CCc3nc(O)c4ccccc4n3)CC2)c1C
assigned_category: 0
--
compound: Clc1ccc(-c2nnc(CSc3nnc(-c4cccs4)o3)o2)cc1
assigned_category: 0
--
compound: Oc1ccc(/C=N/Nc2nc(N3CCCCCC3)nc(N3CCCCCC3)n2)c(O)c1
assigned_category: 0
--
compound: COc1cccc(C2CC(c3cccs3)=NN2C(=S)Nc2ccccc2)c1OC (centres undefined)
assigned_category: 0
--
compound: CC1=NN(C(=O)c2ccc(Br)cc2)C(O)(C(F)(F)OC(F)(F)F)C1 (centres undefined)
assigned_category: 1
--
compound: CC(Oc1cccc(Cl)c1)C(=O)NNC(=O)c1cccnc1 (centres undefined)
assigned_category: 0
--
compound: CCOC(=O)c1sc(NC(=O)c2cccc(S(=O)(=O)N3CCN(C)CC3)c2)cc1C
assigned_category: 0
--
compound: Cc1sc2ncnc(OCC(=O)NC(C)C)c2c1C
assigned_category: 0
--
compound: O=C(NCc1ccccn1)C1CCN(S(=O)(=O)c2c[nH]cn2)CC1
assigned_category: 0
--
compound: CN1c2ccccc2C(O)=C(C(S)=Nc2ccc(Cl)cc2)S1(=O)=O
assigned_category: 1
--
compound: Cc1cccc(C(=O)NC(=S)N2CCN(C(=S)NC(=O)c3cccc(C)c3)CC2)c1
assigned_category: 0
--
compound: CN1CCC2(CC1)Nc1nc(SCc3ccc(Cl)cc3)nn1C1=C2CN(C)CC1
assigned_category: 0

* * *

# EC50 listing for each entry below
- test_description: NIH3T3 cell viability loss – ATP luminescence, mouse fibroblasts, counter-screen, dose response (AID 2010);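 note: cells exposed to compound for about 90 hours before reading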
- Format: functional, cell-based
Activity calls are given as the source filed them.
property_measured: EC50

molecule: CSc1ccc(CN2CCCC(CNC(=O)c3ccc(F)cc3)C2)cc1 (stereo unspecified)
property_measured: EC50
measured_value: > 30 µM (not active)
//
molecule: CN1CCC(N(C)S(=O)(=O)c2ccc(C(C)(C)C)cc2)CC1
property_measured: EC50
measured_value: 35.5 µM (active)
//
molecule: Cc1ccc(C(=O)c2c(NC(=O)c3ccncc3)sc3c2CCCC3)cc1
property_measured: EC50
measured_value: > 60 µM (not active)
//
molecule: COC(=O)C1=C(Nc2ccc(C)cc2)C=C(C)C(C(=O)OC)C1c1cccc(OC)c1 (stereo unspecified)
property_measured: EC50
measured_value: 6.59 µM (active)
//
molecule: Cc1cccc2c1NC(C)CC2C (stereo unspecified)
property_measured: EC50
measured_value: > 30 µM (not active)
//
molecule: O=C(C[n+]1cc(-c2ccc(Cl)c(Cl)c2)n2c1CCC2)N1c2ccccc2Sc2ccccc21
property_measured: EC50
measured_value: > 60 µM (not active)
